The reported measurements were obtained from PubChem BioAssay (NCI).

- Test system: SR leukemia
- Test Name: NCI-60 one-dose screen, 48 h (100 = growth as untreated, 0 = no growth, -100 = all killed)
- Measurement Setup: 10 µM unless noted
Compounds without any hit were thinned out: in the full panel of roughly 83,000, 20% have a hit. Activity calls are given as the source filed them. How the source made its calls: active means growth percent below 10; inactive means the rest.
Readout Kind: growth

item_smiles=COc1ccccc1CNCCCN1C(=O)c2ccc3c4c(ccc(c24)C1=O)C(=O)N(CCCNCCCCNCCCN)C3=O result="-27.1% (active)"

Result for `COc1ccc(-c2nc(/C=C3/C(=O)Nc4ccc(F)cc43)c3ccccn23)cc1` , tested on SR leukemia, growth: 79.1% (inactive)

Result for `CC(C)CSc1nc(NN)c(C#N)c(-c2ccc(F)cc2)n1` , tested on SR leukemia, growth: 74.8% (inactive)
